In this section we review reported growth inhibition values for a set of compounds.
# Protocol: NCI Yeast Anticancer Drug Screen. Data for the wt1 strain (AID 149);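 note: 0% = growth of vehicle-treated wt1 cultures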
# Particulars: S. cerevisiae wt1 strain (SPY 50644) growth inhibition; at 100.0 µM; stronger effect = higher value
This is part of a sample that, as a whole, favours compounds with a hit. Of some 79,000 tested, about 15% had one in any assay.
Give just the numeric value; % need not be written.

The following compounds have reported results that may help.
> print(dat)
                                   compound  value.reported
1              C=C(CN(C)C)C(=O)c1cc(C)ccc1C              99
2  COC(=O)C1=C(C(=O)OC)C2(C)C=CC1O2 (stereo not given)              93
3             O=C1Nc2ccccc2/C1=C/COc1ccccc1              97
4           COc1ccc(/C=C/C(=O)C(C)(C)Br)cc1              33

Retrieve growth inhibition measured for Cc1ccc(CSC(N)=Nc2ccccc2)cc1C and print it. 21

Return reported growth inhibition. Input compound: O=C(Nc1ccc(Cl)cc1)OCC#CCCl 9

Quick one: give measured growth inhibition for COC1=CC(=O)C2C(C1=O)C(c1ccc(Cl)cc1)[C@@H]2C (stereo not given in full) 99

State its growth inhibition: CCN(CC)CC[n+]1ccc2c(C)c3[nH]c4ccc(O)cc4c3c(C)c2c1 8

Please give measured growth inhibition of the following entry: CC(=O)Nc1ccc2c(c1)C(=Nc1ccc(C(=O)O)cc1)c1ccccc1-2 51

Given CC1=NN(c2cccc(Cl)c2)C(=O)C1 , respond with its growth inhibition. 28

Identify measured growth inhibition associated with O=C(O)C1CCCCC1c1c2ccc(=O)c(O)c-2oc2c(O)c(O)ccc12 (stereo not given) 82

Identify growth inhibition associated with the compound CC(=O)Cc1ccc[cH-]1.[Fe+2].c1cc[cH-]c1 7

Given CC(C)[N+]([O-])(CCCNc1c2ccccc2nc2cccc([N+](=O)[O-])c12)C(C)C , respond with its growth inhibition. 94

Please supply the value of reported growth inhibition for the item COc1ccccc1/C=C1\Sc2scc(-c3cccc([N+](=O)[O-])c3)[n+]2C1=O 94
